tested on: Puccinia recondita f. sp. tritici; assay: Test H: wheat leaf rust, test suspension sprayed after inoculation of wheat seedlings, visual disease rating; assay type: in vivo; details: 200 ppm; 100 = 100% disease control, 0 = no control relative to controls
The entries below are paired with their reported Test H disease control rating.
endpoint name: Test H disease control rating (%)

>>> value_measured("Fc1cc(F)c(-c2c(Cl)nc(Br)n2-c2cccc(OC(F)F)c2)c(F)c1")
98
>>> value_measured("COc1ccc(F)c(-c2c(Cl)nc(Br)n2-c2ccc(C)c(F)c2)c1F")
0
>>> value_measured("N#Cc1ccc(F)c(-c2c(Cl)nc(Cl)n2-c2ccc(F)cc2)c1F")
18
>>> value_measured("COc1cc(F)c(-c2c(Cl)nc(Cl)n2-c2ccc(OC(F)(F)F)cc2)c(F)c1")
72
>>> value_measured("COc1cc(F)c(-c2c(C)nc(Cl)n2-c2ccc(OC)nc2)c(F)c1")
100
>>> value_measured("Fc1cc(F)c(-c2c(Cl)nc(Cl)n2-c2cccc(OC(F)F)c2)c(F)c1")
99
>>> value_measured("Fc1cccc(-n2c(Br)nc(Cl)c2-c2c(F)ccc(F)c2F)c1")
0
>>> value_measured("COc1cc(F)c(-c2c(Cl)nc(C)n2-c2cccc(Cl)c2)c(F)c1")
98
>>> value_measured("Fc1cc(-n2c(Cl)nc(Cl)c2-c2cnc3ccccc3c2)ccc1Cl")
0
>>> value_measured("COc1ccc(Cl)c(-c2c(Cl)ncn2-c2ccc(Cl)cc2)c1F")
0
>>> value_measured("COc1ccc(F)c(-c2c(Cl)nc(Br)n2-c2ccc(F)cc2)c1F")
32
>>> value_measured("Cc1nc(Cl)c(Cc2c(F)cc(F)cc2F)n1-c1cc(Cl)cc(Cl)c1")
0
>>> value_measured("Fc1ccc(-n2c(Br)nc(Br)c2-c2ccc(Cl)c(F)c2)c(Cl)c1")
6
>>> value_measured("COc1ccc(F)c(-c2c(Cl)nc(Br)n2-c2ccc(Cl)cc2)c1Cl")
0
>>> value_measured("Cc1nc(Cl)n(-c2ccc(Cl)c(F)c2)c1-c1ccc(Br)cn1")
0
>>> value_measured("COc1cc(F)c(-c2c(C)nc(Br)n2-c2ccc(OC)nc2)c(F)c1")
99
>>> value_measured("COc1ccc(F)c(-c2c(Br)nc(Cl)n2-c2ccc(Cl)cc2)c1F")
9
>>> value_measured("COc1ccc(F)c(-c2c(Cl)ncn2-c2cccc(C)c2)c1F")
48
